Where do these numbers come from? They come from paper PMC8510090.

# assayed-target: T1, GapRΔC17 (Caulobacter crescentus, UniProt B8H4R9 1-72)
# T1 sequence: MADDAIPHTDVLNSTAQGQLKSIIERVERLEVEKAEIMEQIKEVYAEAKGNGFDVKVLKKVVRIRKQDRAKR
# protocol-notes: MST; MST: 20 mM PBS, 150 mM NaCl, 0.02% n-dodecyl-β-D-maltoside, pH 7, 20 nM labeled dimer (labeling at room temperature); NMR netropsin competition: 50 mM sodium phosphate, 150 mM NaCl, pH 7.0, 90% H2O/5% D2O (so in the source)
# stated-conditions: protein: recombinant; tags: C-terminal His6; chain copies: 2
measurement-kind: pKd
# pKd: negative log10 of molar concentration; output just the value

Notebook: 6CG DNA (dsDNA) DNA 1: CGCGCGCGCGCG DNA 2: CGCGCGCGCGCG , pKd read as 4.74
